meta.source: ChEMBL document CHEMBL1201862

# Test system: UO-31
# assay_procedure: NCI tumour cell line growth inhibition, 48 h
The source made the active and inactive calls. Cut-off read from the data, not from the text of the source: active = GI50 up to about 1.1 µM and inactive = higher.
recorded_endpoint: GI50

>  <molecule>
COc1cc(/C=C2/C[C@H]3[C@@H]4CC=C5C[C@@H](O)CC[C@]5(C)[C@H]4CC[C@]3(C)NC2=O)cc(OC)c1OC

>  <GI50>
9.68 µM (inactive)

$$$$
>  <molecule>
O=C(CCCCCCC(=O)Nc1cccnc1)NO [PYROXAMIDE]

>  <GI50>
6.5 µM (inactive)

$$$$
>  <molecule>
Cn1cnnc1Sc1c([N+](=O)[O-])ncn1C

>  <GI50>
> 100 µM (inactive)

$$$$

Moving on to another molecule below.
Request: For the molecule CC(C)N(C(C)C)P(OCCC#N)OC1CC(n2cnc3c(=O)[nH]cnc32)OC1COC(=O)NCCCCCCNC(=O)OC(C)(C)c1ccc(-c2ccccc2)cc1 (centres undefined) , what GI50 is on record?
Result: 17.5 µM (inactive)
